Kindly state pEC50 for each of the entries shown.
# System: human STING pathway in THP1-ISG cells
# TEST_METHOD_NOTES: STING human cell reporter assay
# Assay type: cell-based
# CONDITION_LABEL: SEAP reporter, 24 h
// field semantics: pEC50 = negative decimal log of concentration (mol/L)

Record request: pEC50 value, item Nc1nc2c(ncn2[C@@H]2O[C@@H]3CO[P@@](=O)(S)O[C@@H]4[C@@H](CO[P@](=O)(S)O[C@@H]2[C@@H]3CO)C[C@@H](n2cnc3c(N)ncnc32)[C@@H]4O)c(=O)[nH]1
5.69

Next up: Nc1nc2c(ncn2[C@@H]2O[C@@H]3COP(=O)(O)O[C@@H]4[C@@H](COP(=O)(O)O[C@@H]2[C@@H]3CO)C[C@@H](n2ccc3c(N)ncnc32)[C@@H]4O)c(=O)[nH]1
5.89

Param item: Nc1nc2c(ncn2C2OC3COP(=O)(O)OC4C(CNP(=O)(O)OC2C3CO)OC(n2cnc3c(N)ncnc32)C4F)c(=O)[nH]1 (centres unmarked)
5.54

Likewise for Nc1nc2c(ncn2C2OC3CO[P@](=O)(S)NC4C(CO[P@](=O)(S)OC2C3CO)OC(n2cnc3c(N)ncnc32)C4F)c(=O)[nH]1 (some centres unmarked) ?
5.75

How about Nc1nc2c(ncn2C2OC3COP(=O)(O)NC4C(CO[P@](=O)(S)OC2C3CO)OC(n2cnc3c(N)ncnc32)C4F)c(=O)[nH]1 (some centres unmarked) ?
5.47

Check Nc1nc2c(ncn2[C@@H]2O[C@@H]3CO[P@](=O)(S)O[C@@H]4[C@@H](CO[P@](=O)(S)O[C@@H]2[C@@H]3CO)C[C@@H](n2ccc3c(N)ncnc32)[C@@H]4O)c(=O)[nH]1 too.
5.33

Let us now turn to Nc1nc2c(ncn2C2OC3COP(=O)(O)NC4CC(n5cnc6c(N)ncnc65)OC4COP(=O)(O)OC2C3O)c(=O)[nH]1 (centres unmarked)
6.10

Do the same for Nc1nc2c(ncn2[C@@H]2O[C@@H]3CO[P@@](=O)(S)O[C@@H]4[C@@H](CO[P@@](=O)(S)O[C@@H]2[C@@H]3CO)C[C@@H](n2ccc3c(N)ncnc32)[C@@H]4O)c(=O)[nH]1 please
6.96

Moving on to Nc1nc2c(ncn2[C@@H]2O[C@@H]3CO[P@](=O)(S)O[C@@H]4[C@@H](CO[P@@](=O)(S)O[C@@H]2[C@@H]3CO)C[C@@H](n2cnc3c(N)ncnc32)[C@@H]4O)c(=O)[nH]1
6.07

Same read-out for Nc1nc2c(ncn2[C@@H]2O[C@@H]3CO[P@@](=O)(S)O[C@@H]4[C@@H](CO[P@](=O)(S)O[C@@H]2[C@@H]3CO)C[C@@H](n2ccc3c(N)ncnc32)[C@@H]4O)c(=O)[nH]1 ?
6.25

Same question, Nc1nc2c(ncn2C2OC3CO[P@@](=O)(S)NC4C(CO[P@@](=O)(S)OC2C3CO)OC(n2cnc3c(N)ncnc32)C4F)c(=O)[nH]1 (some centres unmarked) this time
5.24

----------
I'd be grateful if you could share measured pEC50 for these entries.
# System: human STING pathway in THP1-ISG cells
# TEST_METHOD_NOTES: STING human cell reporter assay
# Type: cell-based
# CONDITION_LABEL: SEAP reporter, 24 h
A value of pEC50 is the negative decimal logarithm of a concentration given in moles per litre.

What value of pEC50 has been reported for the following compound? CNc1ncnc2c(C3OC4COP(=O)(O)OC5C(O)C(COP(=O)(O)OC4C3O)OC5n3cnc4c(=O)[nH]c(N)nc43)cnn12 (stereo not drawn) [Cpd 2]
6.07

How about this compound: Nc1nc2c(ncn2[C@@H]2O[C@@H]3CO[P@](=O)(S)O[C@@H]4[C@@H](CO[P@@](=O)(S)O[C@@H]2[C@@H]3CO)C[C@@H](n2ccc3c(N)ncnc32)[C@@H]4O)c(=O)[nH]1 [Cpd 11]
5.27

Same lookup for Nc1nc2c(ncn2[C@@H]2O[C@@H]3CO[P@@](=O)(S)O[C@@H]4[C@@H](CO[P@@](=O)(S)O[C@@H]2[C@@H]3CO)C[C@@H](n2cnc3c(N)ncnc32)[C@@H]4O)c(=O)[nH]1 [Cpd 5] , please.
5.17

Reference source for all entries: patent US11492367B2
